- experimental system: GPR120 (Homo sapiens)
- Sequence (Q5NUL3 1-361): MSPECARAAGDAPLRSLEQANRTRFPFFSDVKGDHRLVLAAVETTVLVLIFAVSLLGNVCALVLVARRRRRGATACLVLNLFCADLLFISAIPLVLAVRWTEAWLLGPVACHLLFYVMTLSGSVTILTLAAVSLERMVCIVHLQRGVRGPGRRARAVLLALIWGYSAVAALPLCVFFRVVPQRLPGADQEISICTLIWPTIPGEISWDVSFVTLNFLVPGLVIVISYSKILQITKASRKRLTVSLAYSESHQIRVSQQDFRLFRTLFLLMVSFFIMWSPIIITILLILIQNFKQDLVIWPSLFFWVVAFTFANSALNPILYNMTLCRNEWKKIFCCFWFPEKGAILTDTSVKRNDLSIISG
- protocol description: BRET activity test (β-arrestin-2 recruitment, GPR120-YFP / β-arrestin-2-Rluc in HEK293 cells)
- Format: cell-based
- Set-up: host or cells: HEK293 (transfected with both plasmids)
- measurement context: Table 3; read-out: FFA4 (β-arrestin2 pEC50) (converted)
reported endpoint: EC50
Note: a bare number is incomplete; add the unit.

>  <item smiles>
Cc1cc(C)c(NS(=O)(=O)c2ccc(-c3ccc4ccccc4c3)cc2)c(C)c1

>  <reported endpoint>
EC50

>  <measurement>
19.5 nM

$$$$

Problem: Identify EC50 associated with the molecule `O=S(=O)(Nc1ccc(Cl)cc1Cl)c1ccc(-c2ccc3ccccc3c2)cc1`
Result: 16.6 nM

Problem: Identify EC50 associated with the molecule `Cc1cc(C)c(NS(=O)(=O)c2ccc(-c3ccc(OC(F)(F)F)cc3)cc2)c(C)c1`
Result: 43.7 nM

Problem: Identify EC50 associated with the molecule `O=S(=O)(Nc1ccc(F)cc1)c1ccc(-c2ccc(OC(F)(F)F)cc2)cc1`
Result: 34.7 nM

Problem: Identify EC50 associated with the molecule `Cc1cc(C)c(NS(=O)(=O)c2ccc(-c3ccc(N)c(F)c3)cc2)c(C)c1`
Result: 132 nM
